Assign pKi to each entry below.
Target: Cytochrome P450 1A2 (Rattus norvegicus, UniProt P04799)
Sequence (P04799 whole entry): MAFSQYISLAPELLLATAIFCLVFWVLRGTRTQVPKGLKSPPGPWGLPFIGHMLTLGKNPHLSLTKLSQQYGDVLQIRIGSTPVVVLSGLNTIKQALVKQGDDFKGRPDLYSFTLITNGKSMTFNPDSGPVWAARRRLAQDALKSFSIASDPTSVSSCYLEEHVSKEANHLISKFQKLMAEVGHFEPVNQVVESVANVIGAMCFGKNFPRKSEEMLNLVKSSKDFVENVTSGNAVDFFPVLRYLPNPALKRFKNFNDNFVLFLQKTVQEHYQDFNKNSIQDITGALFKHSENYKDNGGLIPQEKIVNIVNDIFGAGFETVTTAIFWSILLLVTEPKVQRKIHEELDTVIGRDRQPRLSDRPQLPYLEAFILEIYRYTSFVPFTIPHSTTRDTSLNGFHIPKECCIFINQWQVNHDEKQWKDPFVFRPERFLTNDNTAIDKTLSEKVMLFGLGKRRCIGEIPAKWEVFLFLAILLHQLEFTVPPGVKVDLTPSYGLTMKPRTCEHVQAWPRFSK
Experiment: Competitive inhibition of rat recombinant CYP1A2 expressed in Escherichia coli assessed as inhibition of PHEN O-deethylation by dixon plot analysis
Scale explanation: pKi corresponds to minus log10 of a concentration expressed in moles per litre.

Challenge: Jot down pKi (Cytochrome P450 1A2 (Rattus norvegicus, UniProt P04799)) of CCCCC/C=C\C/C=C\CCCCCCCC(=O)O [SODIUM LINOLATE] .
Response given: 4.87

Challenge: Jot down pKi (Cytochrome P450 1A2 (Rattus norvegicus, UniProt P04799)) of "CCCCCCCC/C=C\CCCCCCCC(=O)[O-].[Na+]" .
Response given: 4.78

Challenge: Jot down pKi (Cytochrome P450 1A2 (Rattus norvegicus, UniProt P04799)) of "CCCCC/C=C\C/C=C\C/C=C\C/C=C\CCCC(=O)O" .
Response given: 5.33

meta.source: ChEMBL document CHEMBL3526044
